- Tested on: HRE-bla ME-180 cells
- Assay details: Reporter gene assay (HRE-bla ME-180 HIF reporter, GeneBLAzer)
- Type: cell-based, human
- Experimental setup: 24 hour normoxia
Bridge positions count the residues as written; N and C are the ends. Square brackets hold non-standard residues; d marks the D form. Peptide text beside a SMILES is read from it. S5 = C=CCCC[C@](C)(N)C(=O)O
Measurement name: EC50

Given the compound CC[C@H](C)[C@H](NC(=O)[C@H](Cc1ccccc1)NC(C)=O)C(=O)N[C@@H](CC(=O)O)C(=O)N[C@@H](CCC(=O)O)C(=O)N[C@@H](CCC(=O)O)C(=O)N[C@H](C(=O)N[C@@H](CC(C)C)C(=O)N[C@@H](CCSC)C(=O)N[C@@]1(C)CCCC=CCCC[C@@](C)(C(=O)N[C@@H](CCSC)C(=O)N[C@@H](C)C(=O)N[C@@H](CC(C)C)C(N)=O)NC(=O)[C@H]([C@@H](C)CC)NC(=O)[C@H](C(C)C)NC(=O)[C@H](Cc2ccccc2)NC1=O)C(C)C [SP-236] (Ac-FIDEEVLM[S5]FVI[S5]MAL-NH2; staple 9-13) , write its reported EC50. > 30 µM

====

- Test system: HRE-bla ME-180 cells
- Assay details: Reporter gene assay (HRE-bla ME-180 HIF reporter, GeneBLAzer)
- Type: cell-based, human
- Experimental setup: 18 h; at top conc; 24 hrs normoxia
Bridge positions count the residues as written; N and C are the ends. Square brackets hold non-standard residues; d marks the D form. Peptide text beside a SMILES is read from it. R8 = C=CCCCCCC[C@@](C)(N)C(=O)O; S5 = C=CCCC[C@](C)(N)C(=O)O; Nle = CCCC[C@H](N)C(=O)O
Measurement name: 18 h Avg % max inhibition at top conc (HIF Rptr-24 hrs normoxia) (μM)

The following compounds have reported results that may help.
Compound: CCCC[C@H](NC(=O)[C@H](Cc1ccccc1)NC(=O)[C@@H](NC(=O)[C@H](C)NC(=O)[C@H](CCC(N)=O)NC(=O)[C@H](CC(=O)O)NC(=O)[C@@H](NC(=O)[C@H](Cc1ccccc1)NC(C)=O)[C@@H](C)CC)C(C)C)C(=O)N[C@@]1(C)CCCC=CCCC[C@@](C)(C(=O)N[C@@H](CO)C(=O)N[C@@H](C)C(=O)N[C@@H](CC(C)C)C(=O)N[C@@H](CC(C)C)C(N)=O)NC(=O)[C@H]([C@@H](C)CC)NC(=O)[C@H](C(C)C)NC(=O)[C@H](CC(C)C)NC1=O [SP-257] (Ac-FIDQAVF[Nle][S5]LVI[S5]SALL-NH2; staple 9-13)
Readout value: ++++ (≥50: ++++)

Compound: CCCC[C@@H]1NC(=O)[C@H](CC(C)C)NC(=O)[C@H](C(C)C)NC(=O)[C@@](C)(NC(=O)[C@H](CCC(=O)O)NC(=O)[C@H](CC(=O)O)NC(=O)[C@@H](NC(=O)[C@H](Cc2ccccc2)NC(C)=O)[C@@H](C)CC)CCCC=CCCCC2(CCCC=CCCC[C@](C)(C(=O)N[C@@H](C)C(=O)N[C@@H](C)C(=O)N[C@@H](CC(C)C)C(N)=O)NC(=O)[C@H]([C@@H](C)CC)NC(=O)[C@H](C(C)C)NC(=O)[C@H](CC(C)C)NC2=O)NC1=O (some centres unmarked)
Readout value: + (<10: +)

Compound: CCCC[C@H](NC(=O)[C@H](CCC(=O)O)NC(=O)[C@]1(C)CCCC=CCCCCCC[C@@](C)(NC(=O)[C@H](CCC(=O)O)NC(=O)[C@H](CC(=O)O)NC(=O)[C@@H](NC(=O)[C@H](Cc2ccccc2)NC(C)=O)[C@@H](C)CC)C(=O)N[C@@H](C(C)C)C(=O)N[C@@H](CC(C)C)C(=O)N[C@@H](CCCC)C(=O)N[C@@H](CO)C(=O)N[C@@H](CC(C)C)C(=O)N[C@@H](C(C)C)C(=O)N1)C(=O)N[C@@H](C)C(=O)N[C@@H](CC(C)C)C(N)=O [SP-195] (Ac-FIDE[R8]VL[Nle]SLV[S5]E[Nle]AL-NH2; staple 5-12)
Readout value: ++++ (≥50: ++++)

Compound: CC[C@H](C)[C@H](NC(=O)[C@H](C)NC(C)=O)C(=O)N[C@@H](CC(=O)O)C(=O)N[C@@H](CCC(=O)O)C(=O)N[C@@H](CCC(=O)O)C(=O)N[C@H](C(=O)N[C@@H](CC(C)C)C(=O)N[C@@H](CCSC)C(=O)N[C@@]1(C)CCCC=CCCC[C@@](C)(C(=O)N[C@@H](CCSC)C(=O)N[C@@H](C)C(=O)N[C@@H](CC(C)C)C(N)=O)NC(=O)[C@H]([C@@H](C)CC)NC(=O)[C@H](C(C)C)NC(=O)[C@H](CC(C)C)NC1=O)C(C)C [SP-217] (Ac-AIDEEVLM[S5]LVI[S5]MAL-NH2; staple 9-13)
Readout value: +++ (≤25 but <50: +++)

Could you please provide reported 18 h Avg % max inhibition at top conc (HIF Rptr-24 hrs normoxia) (μM) for CCCC[C@@H]1NC(=O)[C@H](CC(C)C)NC(=O)[C@H](C(C)C)NC(=O)[C@@](C)(NC(=O)[C@H](CCC(=O)O)NC(=O)[C@H](CC(=O)O)NC(=O)[C@@H](NC(=O)[C@H](Cc2ccccc2)NC(C)=O)[C@@H](C)CC)CCCC=CCCCC2(CCCC=CCCC[C@](C)(C(=O)N[C@@H](CCCC)C(=O)N[C@@H](C)C(=O)N[C@@H](CC(C)C)C(N)=O)NC(=O)[C@H]([C@@H](C)CC)NC(=O)[C@H](C(C)C)NC(=O)[C@H](CC(N)=O)NC2=O)NC1=O (some centres unmarked) ? Thanks! ++++ (≥50: ++++)

Please report the measured 18 h Avg % max inhibition at top conc (HIF Rptr-24 hrs normoxia) (μM) for CC[C@H](C)[C@H](NC(=O)[C@H](Cc1ccccc1)NC(C)=O)C(=O)N[C@@H](CC(=O)O)C(=O)N[C@@H](CCC(=O)O)C(=O)N[C@@H](CCC(=O)O)C(=O)N[C@H](C(=O)N[C@@H](CC(C)C)C(=O)N[C@@H](CCSC)C(=O)N[C@@]1(C)CCCC=CCCC[C@@](C)(C(=O)N[C@@H](CCSC)C(=O)N[C@@H](C)C(=O)N[C@@H](CC(C)C)C(N)=O)NC(=O)[C@H]([C@@H](C)CC)NC(=O)[C@H](C(C)C)NC(=O)[C@H](Cc2ccccc2)NC1=O)C(C)C [SP-236] (Ac-FIDEEVLM[S5]FVI[S5]MAL-NH2; staple 9-13) +++ (≤25 but <50: +++)

Tell us which 18 h Avg % max inhibition at top conc (HIF Rptr-24 hrs normoxia) (μM) value is on record for CCCC[C@@H]1NC(=O)[C@H](CC(C)C)NC(=O)[C@H](C(C)C)NC(=O)[C@@](C)(NC(=O)[C@H](CCC(=O)O)NC(=O)[C@H](CC(=O)O)NC(=O)[C@@H](NC(=O)[C@H](Cc2ccccc2)NC(C)=O)[C@@H](C)CC)CCCC=CCCCC2(CCCC=CCCC[C@](C)(C(=O)N[C@@H](CCCNC(=N)N)C(=O)N[C@@H](C)C(=O)N[C@@H](CC(C)C)C(N)=O)NC(=O)[C@H]([C@@H](C)CC)NC(=O)[C@H](C(C)C)NC(=O)[C@H](CC(C)C)NC2=O)NC1=O (some centres unmarked) + (<10: +)

Indicate its recorded 18 h Avg % max inhibition at top conc (HIF Rptr-24 hrs normoxia) (μM); the compound in question is CCCC[C@H](NC(=O)[C@H](CCC(=O)O)NC(=O)[C@@H](NC(=O)[C@@H](NC(=O)[C@H](CC(C)C)NC(=O)[C@]1(C)CCCC=CCCC[C@](C)(NC(=O)[C@H](CCC(=O)O)NC(=O)[C@H](CC(=O)O)NC(=O)[C@H](CO)NC(=O)[C@H](Cc2ccccc2)NC(C)=O)C(=O)N[C@@H](C(C)C)C(=O)N[C@@H](CC(C)C)C(=O)N[C@@H](CCCC)C(=O)N1)C(C)C)[C@@H](C)CC)C(=O)N[C@@H](C)C(=O)N[C@@H](CC(C)C)C(N)=O [SP-154] (Ac-FSDE[S5]VL[Nle][S5]LVIE[Nle]AL-NH2; staple 5-9) + (<10: +)

====

- Target: flag-tagged HIF1α (AA 786-826) / His6-tagged p300 (AA 323-423) complex (Homo sapiens)
- Construct: His6-tagged p300 (AA 323-423); made in house; host or cells: E. coli (pETDuet vector)
- Sequence (Q09472 323-423, one chain of several): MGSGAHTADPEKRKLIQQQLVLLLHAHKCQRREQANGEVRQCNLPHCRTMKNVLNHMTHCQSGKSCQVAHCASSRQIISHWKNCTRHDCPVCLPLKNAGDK
- Assay details: HIF1α p300 displacement assay (TR FRET, +CHAPS)
- Format: binding
- Experimental setup: read-out: IC50 (nM) (HIF1α_p300 Displacement + CHAPS)
Bridge positions count the residues as written; N and C are the ends. Square brackets hold non-standard residues; d marks the D form. Ala(3-Me-diazirin-3-yl) = CC1(C[C@H](N)C(=O)O)N=N1; S5 = C=CCCC[C@](C)(N)C(=O)O; Nle = CCCC[C@H](N)C(=O)O
Measurement name: IC50

Please supply the value of reported IC50 for the item SP-72 (Ac-FIDEEVL[Nle][S5]L[Ala(3-Me-diazirin-3-yl)]I[S5][Nle]ALDRI-NH2; staple 9-13) 400 to 700 nM

Reference for the values: patent US20190225650A1
